# measurement_parameters: human
Exercise: state measured Hepatotoxicity (choleostasis) for each of the molecules provided.
Form: value (number only, do not type unit).

The molecule CCCCC1C(=O)N(c2ccccc2)N(c2ccc(O)cc2)C1=O (stereo unspecified) [OXYPHENBUTAZONE ANHYDROUS] showed Hepatotoxicity (choleostasis) equal to 3

The molecule Cc1cc(NS(=O)(=O)c2ccc(N)cc2)nc(C)n1 showed Hepatotoxicity (choleostasis) equal to 0

The molecule COc1ccc2[nH]cc(CCNC(C)=O)c2c1 showed Hepatotoxicity (choleostasis) equal to 0

The molecule CCCCC(=O)N(Cc1ccc(-c2ccccc2-c2nnn[nH]2)cc1)[C@H](C(=O)O)C(C)C showed Hepatotoxicity (choleostasis) equal to 1

The molecule C#CC(C)(O)CC (stereo unspecified) showed Hepatotoxicity (choleostasis) equal to 1

The molecule CCN1CCCC1CNC(=O)c1cc(S(=O)(=O)CC)c(N)cc1OC (stereo unspecified) [AMISULPRIDE] showed Hepatotoxicity (choleostasis) equal to 0

The molecule CC1CN(c2cc3c(cc2F)c(=O)c(C(=O)O)cn3-c2ccc(F)cc2F)CCN1 (stereo unspecified) showed Hepatotoxicity (choleostasis) equal to 0

The molecule O=[N+]([O-])c1ccc(O)c([N+](=O)[O-])c1 showed Hepatotoxicity (choleostasis) equal to 0

The molecule O=C(O)C1=C(C[n+]2ccc(CCS(=O)(=O)[O-])cc2)CS[C@@H]2[C@H](NC(=O)[C@H](NC(=O)c3[nH]cnc3C(=O)O)c3ccccc3)C(=O)N12 showed Hepatotoxicity (choleostasis) equal to 0

The molecule CN(C)[C@@H]1C(O)=C(C(=O)NCNCCCC[C@H](N)C(=O)O)C(=O)[C@@]2(O)C(O)=C3C(=O)c4c(O)cccc4[C@@](C)(O)[C@H]3C[C@@H]12 showed Hepatotoxicity (choleostasis) equal to 0

The molecule CN1CCN(CC(=O)N2c3ccccc3C(=O)Nc3cccnc32)CC1 [PIRENZEPINE] showed Hepatotoxicity (choleostasis) equal to 0

The molecule CCOC(=O)C1=C(C)NC(C)=C(C(=O)OC)C1c1cccc([N+](=O)[O-])c1 (stereo unspecified) showed Hepatotoxicity (choleostasis) equal to 0

The molecule COC(=O)C1=C(C)NC(C)=C(C(=O)OCCN(C)Cc2ccccc2)C1c1cccc([N+](=O)[O-])c1 (stereo unspecified) showed Hepatotoxicity (choleostasis) equal to 0

The molecule C[C@]12Cc3c[nH]nc3C[C@@H]1CC[C@@H]1[C@@H]2CC[C@@]2(C)[C@H]1CC[C@]2(C)O showed Hepatotoxicity (choleostasis) equal to 4

The molecule CC(CN(C)C)CN1c2ccccc2CCc2ccccc21 (stereo unspecified) showed Hepatotoxicity (choleostasis) equal to 0

The molecule N[C@@H]1CN(c2c(F)cc3c(=O)c(C(=O)O)cn([C@@H]4C[C@@H]4F)c3c2Cl)CC12CC2 [SITAFLOXACIN ANHYDROUS] showed Hepatotoxicity (choleostasis) equal to 0

* * *

# measurement_parameters: human
Exercise: state measured Hepatotoxicity (severe hepatitis) for each of the compounds provided.
Form: value (number only, do not type unit).

The compound COC(=O)C1=C(C)NC(C)=C(C(=O)OC)C1c1ccccc1[N+](=O)[O-] showed Hepatotoxicity (severe hepatitis) equal to 2

The compound CN1Cc2c(N)cccc2C(c2ccccc2)C1 (configuration not stated) showed Hepatotoxicity (severe hepatitis) equal to 0

The compound COc1ccc(CCN(C)CCCC(C#N)(c2cc(OC)c(OC)c(OC)c2)C(C)C)cc1OC (configuration not stated) showed Hepatotoxicity (severe hepatitis) equal to 0

The compound COc1ccc2c(c1)c(CC(=O)O)c(C)n2C(=O)c1ccc(Cl)cc1 showed Hepatotoxicity (severe hepatitis) equal to 5

The compound CC1=C(CC(=O)O)c2cc(F)ccc2/C1=C\c1ccc([S+](C)[O-])cc1 (configuration not stated) showed Hepatotoxicity (severe hepatitis) equal to 3

The compound Cc1ccc(S(=O)(=O)NC(=O)NN2CC3CCCC3C2)cc1 (configuration not stated) [GLICLAZIDE] showed Hepatotoxicity (severe hepatitis) equal to 0

The compound C[C@]12CC[C@@H]3c4ccc(OS(=O)(=O)O)cc4CC[C@H]3[C@@H]1CCC2=O showed Hepatotoxicity (severe hepatitis) equal to 0

The compound CC(C)Nc1cccnc1N1CCN(C(=O)c2cc3cc(NS(C)(=O)=O)ccc3[nH]2)CC1 showed Hepatotoxicity (severe hepatitis) equal to 0

The compound COc1ccc(/C=C/C(=O)Nc2ccccc2C(=O)O)cc1OC showed Hepatotoxicity (severe hepatitis) equal to 0

The compound Cc1ncc(-c2csc(N=C(N)N)n2)[nH]1 showed Hepatotoxicity (severe hepatitis) equal to 0

The compound COC(=O)C1=C(C)NC(C)=C(C(=O)OCCN(C)Cc2ccccc2)C1c1cccc([N+](=O)[O-])c1 (configuration not stated) showed Hepatotoxicity (severe hepatitis) equal to 0

The compound Cc1c(N)nc([C@@H](CC(N)=O)NC[C@@H](N)C(N)=O)nc1C(=O)N[C@@H](C(=O)N[C@@H](C)[C@H](O)[C@@H](C)C(=O)N[C@H](C(=O)NCCc1nc(-c2nc(C(=O)NCCCN(C)CCCN(Cc3ccc(OCc4ccccc4)c(OCc4ccccc4)c3)Cc3ccc(OCc4ccccc4)c(OCc4ccccc4)c3)cs2)cs1)[C@@H](C)O)C(O[C@H]1O[C@@H](CO)[C@H](O)[C@@H](O)[C@H]1O[C@H]1O[C@@H](CO)[C@@H](O)[C@H](OC(N)=O)[C@@H]1O)c1c[nH]cn1 (some centres not stated) showed Hepatotoxicity (severe hepatitis) equal to 0

The compound Cc1c(Cl)cccc1Nc1ccccc1C(=O)O showed Hepatotoxicity (severe hepatitis) equal to 0

The compound Cc1ncc([N+](=O)[O-])n1CC(O)CCl (configuration not stated) showed Hepatotoxicity (severe hepatitis) equal to 0

The compound CC[C@]1(O)C[C@@H]2CN(CCc3c([nH]c4ccccc34)[C@@](C(=O)OC)(c3cc4c(cc3OC)N(C)[C@H]3[C@@](O)(C(N)=O)[C@H](O)[C@]5(CC)C=CCN6CC[C@]43[C@@H]65)C2)C1 showed Hepatotoxicity (severe hepatitis) equal to 0

The compound COc1cc2nc(N(C)CCCNC(=O)C3CCCO3)nc(N)c2cc1OC (configuration not stated) showed Hepatotoxicity (severe hepatitis) equal to 0

The compound NC(=O)c1ncn([C@@H]2O[C@H](CO)[C@@H](O)[C@H]2O)n1 showed Hepatotoxicity (severe hepatitis) equal to 1

The compound CC[C@H](C)[C@H]1NC(=O)[C@@H](NC(=O)[C@@H](CC(C)C)N(C)C(=O)[C@@H]2CCCN2C(=O)C(C)O)[C@@H](C)OC(=O)[C@H](Cc2ccc(OC)cc2)N(C)C(=O)[C@@H]2CCCN2C(=O)[C@H](CC(C)C)NC(=O)[C@@H](C)C(=O)[C@H](C(C)C)OC(=O)C[C@@H]1O (some centres not stated) showed Hepatotoxicity (severe hepatitis) equal to 0

The compound NS(=O)(=O)OCCCCCCCOS(N)(=O)=O showed Hepatotoxicity (severe hepatitis) equal to 0

The compound NS(=O)(=O)c1cc2c(cc1Cl)NC(C(Cl)Cl)NS2(=O)=O (configuration not stated) [TRICHLORMETHIAZIDE] showed Hepatotoxicity (severe hepatitis) equal to 0

The compound NC1CCN(c2nc3c(cc2F)c(=O)c(C(=O)O)cn3-c2ccc(F)cc2F)C1 (configuration not stated) showed Hepatotoxicity (severe hepatitis) equal to 0

The compound CC(C)(Oc1ccc(CCNC(=O)c2ccc(Cl)cc2)cc1)C(=O)O [BEZAFIBRATE] showed Hepatotoxicity (severe hepatitis) equal to 1

The compound CN(C)[C@@H]1C(O)=C(C(N)=O)C(=O)[C@@]2(O)C(O)=C3C(=O)c4c(O)cccc4[C@@](C)(O)[C@H]3[C@H](O)[C@@H]12 showed Hepatotoxicity (severe hepatitis) equal to 1

The compound N[C@H](Cc1cc(I)c(Oc2cc(I)c(O)c(I)c2)c(I)c1)C(=O)O showed Hepatotoxicity (severe hepatitis) equal to 0

The compound CN1C(=O)CC(=O)N(c2ccccc2)c2cc(Cl)ccc21 showed Hepatotoxicity (severe hepatitis) equal to 0

The compound O=C(NCC1CCCCN1)c1cc(OCC(F)(F)F)ccc1OCC(F)(F)F (configuration not stated) [FLECAINIDE] showed Hepatotoxicity (severe hepatitis) equal to 0

The compound O=C(OC[C@H]1O[C@@H](OC(=O)c2cc(O)c(O)c(OC(=O)c3cc(O)c(O)c(O)c3)c2)[C@H](OC(=O)c2cc(O)c(O)c(OC(=O)c3cc(O)c(O)c(O)c3)c2)[C@@H](OC(=O)c2cc(O)c(O)c(OC(=O)c3cc(O)c(O)c(O)c3)c2)[C@@H]1OC(=O)c1cc(O)c(O)c(OC(=O)c2cc(O)c(O)c(O)c2)c1)c1cc(O)c(O)c(OC(=O)c2cc(O)c(O)c(O)c2)c1 showed Hepatotoxicity (severe hepatitis) equal to 8

* * *

# assay: Comments (NB not yet translated). [column 'COMMENTAIRES' in source]
# measurement_parameters: human

# line_notation, Hepatotoxicity (comment)
measured = [
    ("CCC(=O)O[C@](Cc1ccccc1)(c1ccccc1)[C@H](C)CN(C)C", "CHOLANGITE"),
    ("O=C(O)c1cc(=O)c2c(OCC(O)COc3cccc4oc(C(=O)O)cc(=O)c34)cccc2o1", "#CBP"),
    ("O=C1CN(/N=C/c2ccc(-c3ccc([N+](=O)[O-])cc3)o2)C(O)=N1", "CHOLANGITE"),
]

// provenance: ChEMBL document CHEMBL3137667
